Numbers sourced from ChEMBL document CHEMBL1201862.

# assayed-system: Carboxy-terminal domain RNA polymerase II polypeptide A small phosphatase 1 (Homo sapiens, UniProt Q9GZU7)
# Sequence (Q9GZU7 whole entry, the tested form may be a part): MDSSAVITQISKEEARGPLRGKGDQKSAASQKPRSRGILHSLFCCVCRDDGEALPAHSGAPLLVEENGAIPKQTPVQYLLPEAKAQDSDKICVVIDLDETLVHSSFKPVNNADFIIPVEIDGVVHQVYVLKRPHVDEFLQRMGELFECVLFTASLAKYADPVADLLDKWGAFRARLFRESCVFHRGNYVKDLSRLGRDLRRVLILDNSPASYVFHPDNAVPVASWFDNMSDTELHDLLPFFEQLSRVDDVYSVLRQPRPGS
# run-description: inhibitors of CTDSP1, concentration-response testing, biochemical assay, absorbance-based, actives from ultra-high-throughput screening (AID 540297)
# Format: functional
Active and inactive are the calls of the source.
Answer each item with its documented IC50.

*Q* Find the recorded IC50 belonging to Cc1ccc(S(=O)(=O)N2CCCCC2)cc1C(=O)Nc1cccnc1 and report it.
*A* 9.14 µM (active)

*Q* Which IC50 is listed for COc1ccc2cc3c(N)nn(C(=O)c4cccc(F)c4)c3nc2c1 ?
*A* 8.49 µM (active)

*Q* What IC50 value was documented for this compound, COc1ccc(NS(=O)(=O)c2cccc(C(=O)NNC(=O)c3cccn3C)c2)cc1 ?
*A* 5.42 µM (active)

*Q* Please look up its IC50: Nc1ccc2cccc(O)c2c1
*A* 4.61 µM (active)

*Q* Can you share its IC50? I mean this compound: Cc1c(CCC(=O)O)c(=O)oc2c(C)c(OCc3ccccc3Cl)ccc12
*A* 1.99 µM (active)

*Q* # lookup: IC50 of COc1ccc(NC(=O)NNC(=O)c2ccc(-c3ccccc3)cc2)cc1
*A* 4.6 µM (active)

*Q* IC50 lookup needed for Cc1ccc(SCC(=O)Nc2ccc(-c3nnc(-c4ccco4)o3)cc2)cc1 , thanks.
*A* 9.04 µM (active)

*Q* May I ask what IC50 has been recorded for Cn1nnnc1SCC1=C(C(=O)O)N2C(=O)C(NC(=O)C3CC3c3ccccc3)C2SC1 (stereo not given) ?
*A* 11.8 µM (active)

*Q* Which IC50 reading was recorded for the compound O=C1Nn2c(nc3c(c2=O)CCCC3)/C1=N/Nc1cccc(Cl)c1 ?
*A* 5.32 µM (active)

*Q* Any idea what IC50 was measured for O=C(O)C1CCCCC1C(=O)Nc1cccc(Br)c1 (stereo not given) ?
*A* 3.06 µM (active)

###

# assayed-system: Heat shock factor protein 1 (Mus musculus, UniProt P38532)
# Sequence (P38532 whole entry): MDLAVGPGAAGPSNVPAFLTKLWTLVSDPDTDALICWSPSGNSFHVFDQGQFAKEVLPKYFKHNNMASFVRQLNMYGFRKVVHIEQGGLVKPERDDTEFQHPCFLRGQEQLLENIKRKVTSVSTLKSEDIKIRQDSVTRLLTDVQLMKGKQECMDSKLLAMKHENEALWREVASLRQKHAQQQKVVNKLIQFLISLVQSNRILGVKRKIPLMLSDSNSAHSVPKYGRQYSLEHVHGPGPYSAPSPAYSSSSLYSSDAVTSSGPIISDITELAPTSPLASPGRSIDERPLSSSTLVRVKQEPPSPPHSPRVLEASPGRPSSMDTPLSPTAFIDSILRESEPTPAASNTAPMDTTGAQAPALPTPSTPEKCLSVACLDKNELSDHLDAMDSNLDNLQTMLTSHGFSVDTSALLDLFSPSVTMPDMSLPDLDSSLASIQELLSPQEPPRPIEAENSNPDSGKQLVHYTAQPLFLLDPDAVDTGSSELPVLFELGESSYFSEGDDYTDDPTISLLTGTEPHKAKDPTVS
# run-description: HSF1 potentiators in luciferase reporter cells, confirmation, cell-based, NIH3T3, luminescence, dose retest (AID 435004);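 also: stress induced by proteasome inhibitor MG132 added 30 min after compound; luciferase reporter driven by HSF1 response element in NIH3T3 cells; actives raise luminescence as potentiators of the MG132 stress response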
# Assay type: functional
The source made the active and inactive calls.
Would you mind answering with one of these outcomes? T for active, F for inactive

*Q* What outcome does the record of this test show for Cn1cc([N+](=O)[O-])c(C(=O)Nc2ccc(-c3nc4ccccc4o3)cc2)n1 ?
*A* T

*Q* Which outcome was entered for the molecule Brc1ccc2c(c1)C(c1cccnc1)=NNC(c1cccs1)=N2 in this test?
*A* T

*Q* Status in this test for CCn1cnc2c1c(=O)n(Cc1nnc3n1-c1ccccc1SC3)c(=O)n2Cc1ccccc1 ?
*A* F
